target: Glucose transporter (Leishmania mexicana) (UniProt O61059); assay: ST_JUDE_LEISH: Cytotoxicity at 2uM final concentration against transgenic Leishmania Mexicana promastigotes LmGT2 that are glucose transport deficient and complemented with the L. Mexicana glucose transporter 2. Activity is measured by DNA content using SYBR green in vitro; format: functional
The entries below are paired with their reported inhibition.
Write the answer as a number in %, unit excluded.

In the examples that follow, each entry is paired with its recorded inhibition.
Which inhibition is reported for this compound? CCn1c2ccccc2c2cc(C=NN=c3cc(C)[nH]c4ccccc34)ccc21
0.19

Field request: inhibition | item: CC1(C)NC(N)=NC(=N)N1OCOc1cc(Cl)c(Cl)cc1Cl
6.16

Value lookup for inhibition; key = Cc1cc(N[C@@H](CC(C)C)C(=O)NCCOc2ccccc2)nc(NCCOc2ccccc2)n1
17.1

// inhibition lookup, key: CCCCCNC(=N)N/N=C/c1c[nH]c2ccc(OC)cc12
-0.13

Suppose we examine the compound CN(C)CCC1CCCc2ccc(NC(=O)Nc3ccc(-c4ccncc4)c4ccccc34)cc21 (stereo not given) ; what inhibition value has been reported?
-0.88

Looking for the measured inhibition of Cc1cccc(CN2CCCN(Cc3ccc(C(=O)Nc4ccc(C)c(F)c4)cc3)CC2)c1 , can you help?
2.11

Which measured inhibition value corresponds to O=C(Cc1ccccc1)NC(Nc1ccc([N+](=O)[O-])cc1)C(Cl)(Cl)Cl (stereo not given) ?
0.18

Need inhibition, item N=c1ccn(CC(=NO)c2ccc(Cl)c(Cl)c2)cc1
0.32

Could you share which inhibition value was measured for COc1ccc(-c2ccc(NC(=O)c3cccc(C#N)c3)cc2)cc1CN1CCN(C)CC1 ?
1.6

// moving on: another record for inhibition
Suppose we examine the compound COc1ccc(-c2ccc(NC(=O)c3ccc(C#N)cc3)c(F)c2)cc1CN(C)CCN(C)C ; what inhibition value has been reported?
0.45
